Biological target: Recombinant human PARP (Homo sapiens)
Sequence (P09874 whole entry): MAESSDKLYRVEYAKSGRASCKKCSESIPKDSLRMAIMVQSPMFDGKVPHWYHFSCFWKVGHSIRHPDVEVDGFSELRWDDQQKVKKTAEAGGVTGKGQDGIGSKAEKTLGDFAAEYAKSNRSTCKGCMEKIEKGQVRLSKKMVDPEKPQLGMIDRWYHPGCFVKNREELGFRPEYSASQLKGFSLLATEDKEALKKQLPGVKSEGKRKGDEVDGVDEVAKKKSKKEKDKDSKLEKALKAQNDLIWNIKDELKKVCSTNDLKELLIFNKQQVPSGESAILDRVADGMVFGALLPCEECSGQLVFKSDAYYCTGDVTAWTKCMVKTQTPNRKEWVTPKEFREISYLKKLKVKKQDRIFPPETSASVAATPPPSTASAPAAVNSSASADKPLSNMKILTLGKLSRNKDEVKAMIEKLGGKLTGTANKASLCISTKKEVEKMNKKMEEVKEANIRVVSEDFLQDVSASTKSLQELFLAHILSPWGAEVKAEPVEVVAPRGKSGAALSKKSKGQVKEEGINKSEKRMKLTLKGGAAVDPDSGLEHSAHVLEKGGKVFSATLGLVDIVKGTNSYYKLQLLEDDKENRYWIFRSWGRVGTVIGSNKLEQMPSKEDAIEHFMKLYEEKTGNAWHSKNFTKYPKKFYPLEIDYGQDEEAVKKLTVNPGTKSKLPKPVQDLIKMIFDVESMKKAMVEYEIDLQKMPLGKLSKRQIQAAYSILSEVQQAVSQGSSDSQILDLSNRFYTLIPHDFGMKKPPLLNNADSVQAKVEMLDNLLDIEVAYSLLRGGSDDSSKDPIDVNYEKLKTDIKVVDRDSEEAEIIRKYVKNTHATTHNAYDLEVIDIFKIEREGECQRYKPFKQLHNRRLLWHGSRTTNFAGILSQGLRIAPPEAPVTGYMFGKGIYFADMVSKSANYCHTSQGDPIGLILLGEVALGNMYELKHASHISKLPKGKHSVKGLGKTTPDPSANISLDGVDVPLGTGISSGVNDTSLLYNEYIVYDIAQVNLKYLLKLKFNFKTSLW
Assay: PARP enzyme activity inhibitory action
Details: PARP inhibitory activity IC50 (nM), 3H-NAD, activated DNA, 25° C. 15 min; average of 2 measurements
Parameter: IC50 (nM)
Reply numerically in nM, unit not repeated.

- Compound: "Cc1cccc2c(=O)[nH]c(N3CCC(N(C)C)CC3)cc12 [Example 12]"
  Tested Target: "Recombinant human PARP (Homo sapiens)"
  Result Value: 34

Now let's try a different one.
Prompt: Report IC50 for Cc1cccc2c(=O)[nH]c(N3CCN(C)CC3)cc12 [Example 1] please.
Response: 42

---

Target: adrenalin α1 receptor
Assay: Affinity for adrenalin α1 receptor; 3H-prazosin binding
Conditions: rat brain crude synapse membrane, 25° C. 30 min
Protocol: Preparation of crude synapse membrane and binding experiment were performed according to European Journal of Pharmacology, vol. 55, page 323 (1979). Crude synapse membranes were prepared from cryopreserved rat brain tissues, and a membrane sample and 3H-prazosin were incubated in the presence of a test compound at 25° C. for 30 min. […] The amount of non-specific binding was determined in the presence of 1 μM prazosin. […]
Below, each of the molecules is paired with its reported Ki value.

Example entries and their recorded answers appear below.
- Molecule: "Cc1cccc2c(=O)[nH]c(N3CCN(C)[C@H](CO)C3)cc12 [Example 212]"
  Ki: "> 100 µM"
- Molecule: "CN1CCN(c2cc3ccccc3c(=O)[nH]2)C[C@H]1CO [Example 156]"
  Ki: "> 100 µM"

Prompt: Report Ki for CN1CCN(c2cc3ccccc3c(=O)[nH]2)CC1 [Example Y-3011, reference compound] please.
Response: 4 µM
